Reference source: patent US6737383B1

# Tested on: blackgrass
# ASSAY PROTOCOL: Test B pre/postemergence blackgrass
# Assay type: in vivo, Alopecurus myosuroides
# EXPERIMENTAL CONTEXT: Preemergence, Rate 250 g/ha
READOUT KIND: Blackgrass plant response rating (0 to 10 scale)
# output: bare number, no unit

Take a look at these entries with their results.
1) CCOCn1c(=O)on(C(=O)N(c2ccccc2)C(C)C)c1=O = 9
2) CC(C)N(C(=O)n1oc(=O)n(CC2CC2)c1=O)c1ccccc1 = 8
3) CCc1nc(C)c(C(C)n2c(=O)on(C(=O)N(c3ccc(Cl)cc3)C(C)C)c2=O)s1 (stereo not shown) = 0

Now for the molecule whose Blackgrass plant response rating (0 to 10 scale) we want.
Tell me reported Blackgrass plant response rating (0 to 10 scale) for CC(C)N(C(=O)n1oc(=O)n(CC(C)[N+](=O)[O-])c1=O)c1ccccc1 (stereo not shown) , tested with blackgrass.
0

====

The following molecules are listed with their measured Wheat plant response rating values.
# Tested on: wheat
# ASSAY PROTOCOL: Test B pre/postemergence wheat
# Format: in vivo, Triticum aestivum
# EXPERIMENTAL CONTEXT: Rate 125 g/ha, Postemergence; scale 0 to 10, 0 is no effect, 10 is complete control
# output: bare number, no unit

Take a look at these entries with their results.
1. COCC(OC)n1c(=O)on(C(=O)N(c2ccc(F)cc2)C(C)C)c1=O (stereo not drawn) = 0
2. COC(CCl)n1c(=O)on(C(=O)N(c2ccc(Cl)cc2)C(C)C)c1=O (stereo not drawn) = 0

Now for the molecule whose Wheat plant response rating we want.
# get_value(readout='Wheat plant response rating', item= COC(=O)C(C)n1c(=O)on(C(=O)N(c2ccc(F)cc2F)C(C)C)c1=O (stereo not drawn) )
0

====

# Tested on: morningglory
# ASSAY PROTOCOL: Test B pre/postemergence morningglory
# Assay type: in vivo, Ipomoea hederacea
# EXPERIMENTAL CONTEXT: Rate 500 g/ha, Preemergence; scale 0 to 10 (0 no effect, 10 complete control)
READOUT KIND: Morningglory plant response rating

# get_value(readout='Morningglory plant response rating', item= C#CCCn1c(=O)on(C(=O)N(c2ccc(F)cc2F)C(C)C)c1=O [Compound 744] )
0

# get_value(readout='Morningglory plant response rating', item= COC(CCl)n1c(=O)on(C(=O)N(c2ccc(F)cc2F)C(C)C)c1=O (centres unmarked) [Compound 737] )
3

# get_value(readout='Morningglory plant response rating', item= COCC(OC)n1c(=O)on(C(=O)N(c2ccc(Cl)cc2)C(C)C)c1=O (centres unmarked) [Compound 726] )
1

# get_value(readout='Morningglory plant response rating', item= C#CCn1c(=O)on(C(=O)N(c2ccc(F)cc2)C(C)C)c1=O [Compound 743] )
0

# get_value(readout='Morningglory plant response rating', item= CC(C)N(C(=O)n1oc(=O)n(CCC(=O)N(C)C)c1=O)c1ccc(Cl)cc1 [Compound 719] )
3

====

# System: bedstraw
# ASSAY PROTOCOL: Test B pre/postemergence bedstraw
# Assay type: in vivo, Galium aparine
# EXPERIMENTAL CONTEXT: Rate 125 g/ha; Postemergence; scale 0 to 10, 0 no effect, 10 complete control
READOUT KIND: Bedstraw plant response rating
# output: bare number, no unit

1. CCCn1c(=O)on(C(=O)N(c2ccc(Cl)cc2)C(C)C)c1=O = 2
2. CCc1ccccc1-n1c(=O)on(C(=O)N(c2ccc(F)cc2F)C(C)C)c1=O = 5
3. Cc1ccccc1-n1c(=O)on(C(=O)N(C2=CCOCC2)C(C)C)c1=O = 0

Now for the compound whose Bedstraw plant response rating we want.
# get_value(readout='Bedstraw plant response rating', item= "CCN(C(=O)n1oc(=O)n(-c2c(C)cc(C)cc2C)c1=O)C1CCCCC1" )
0
